Measured values drawn from ChEMBL document CHEMBL2010724 for this set.

What pIC50 was measured for each of the following?
- system-tested: Nitric oxide synthase, inducible (Mus musculus, UniProt P29477)
- Sequence (P29477 whole entry): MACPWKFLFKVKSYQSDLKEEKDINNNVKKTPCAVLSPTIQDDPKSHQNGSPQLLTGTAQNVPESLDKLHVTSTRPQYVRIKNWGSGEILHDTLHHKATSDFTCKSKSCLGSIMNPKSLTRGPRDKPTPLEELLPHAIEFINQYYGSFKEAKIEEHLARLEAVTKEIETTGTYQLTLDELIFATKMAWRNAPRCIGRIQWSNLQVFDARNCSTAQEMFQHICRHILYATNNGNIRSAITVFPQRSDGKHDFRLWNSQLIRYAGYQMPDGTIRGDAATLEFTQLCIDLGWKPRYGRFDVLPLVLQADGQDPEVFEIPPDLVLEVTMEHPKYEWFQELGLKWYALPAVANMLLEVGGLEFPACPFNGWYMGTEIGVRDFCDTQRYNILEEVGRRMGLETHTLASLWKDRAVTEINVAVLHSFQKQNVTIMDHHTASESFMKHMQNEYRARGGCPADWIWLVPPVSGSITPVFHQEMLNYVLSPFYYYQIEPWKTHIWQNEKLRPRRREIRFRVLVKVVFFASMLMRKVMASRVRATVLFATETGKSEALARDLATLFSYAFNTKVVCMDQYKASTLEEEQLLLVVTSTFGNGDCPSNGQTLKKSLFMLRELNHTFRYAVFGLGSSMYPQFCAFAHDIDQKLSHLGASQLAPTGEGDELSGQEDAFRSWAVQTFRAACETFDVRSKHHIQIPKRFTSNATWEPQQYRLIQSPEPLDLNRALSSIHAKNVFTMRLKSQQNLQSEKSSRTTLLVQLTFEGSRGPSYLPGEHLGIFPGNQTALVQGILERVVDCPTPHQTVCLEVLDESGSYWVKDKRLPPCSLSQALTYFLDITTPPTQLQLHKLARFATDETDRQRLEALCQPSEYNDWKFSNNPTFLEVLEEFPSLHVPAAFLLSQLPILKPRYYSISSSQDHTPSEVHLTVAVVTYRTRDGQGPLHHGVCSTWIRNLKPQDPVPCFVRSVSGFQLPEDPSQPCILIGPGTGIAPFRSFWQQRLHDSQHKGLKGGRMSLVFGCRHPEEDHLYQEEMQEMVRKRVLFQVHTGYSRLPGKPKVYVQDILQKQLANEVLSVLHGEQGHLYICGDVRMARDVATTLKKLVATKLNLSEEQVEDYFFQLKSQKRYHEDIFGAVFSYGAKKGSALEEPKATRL
- assay-comment: Inhibition of iNOS-induced NO production in LPS-stimulated mouse BV2 cells after 24 hrs
- Type: cell-based
- measurement-setup: bv-2
Numbers only, as −log10 of the molar value.

Known results for compounds:
compound	pIC50
COc1c(O)cc2oc(-c3cccc(Br)c3)cc(=O)c2c1O	4.96
COc1c(O)cc2oc(-c3cccc(F)c3)cc(=O)c2c1O	4.94
COc1c(O)cc2oc(-c3ccc([N+](=O)[O-])cc3)cc(=O)c2c1O	5.33
COc1c(O)cc2oc(-c3ccc(F)cc3)cc(=O)c2c1O	5.07

Then there is this compound:
Request: Data request, read-out pIC50, for COc1c(O)cc(O)c2c(=O)cc(-c3ccccc3)oc12 [WOGONIN]
Result: 5.11

---

- system-tested: Nitric oxide synthase, inducible (Mus musculus)
- assay-comment: Inhibition of iNOS-induced NO production in LPS-stimulated mouse BV2 cells at 10 uM after 24 hrs
- Assay type: cell-based
- measurement-setup: BV-2
Returns one of Yes or No; Yes when inhibition is >= 40%.

Study these solved cases before continuing.
substance-smiles	system-tested	assigned-class
COc1c(O)cc2oc(-c3ccccc3)cc(=O)c2c1O	Nitric oxide synthase, inducible (Mus musculus)	No
COc1cc(-c2cc(=O)c3c(O)c(OC)c(O)cc3o2)ccc1O	Nitric oxide synthase, inducible (Mus musculus)	No
COc1c(O)cc2oc(-c3cccc(Br)c3)cc(=O)c2c1O	Nitric oxide synthase, inducible (Mus musculus)	Yes
COc1c(O)cc2oc(-c3ccc(F)cc3F)cc(=O)c2c1O	Nitric oxide synthase, inducible (Mus musculus)	No
COc1c(O)cc2oc(-c3ccc([N+](=O)[O-])cc3)cc(=O)c2c1O	Nitric oxide synthase, inducible (Mus musculus)	Yes

Request: In plain terms: is recorded inhibition at least 40% for `COc1c(O)cc2oc(-c3ccc(Cl)c(Cl)c3)cc(=O)c2c1O` ?
Result: No

Request: In plain terms: is recorded inhibition at least 40% for `COc1c(O)cc2oc(-c3ccccc3F)cc(=O)c2c1O` ?
Result: No

---

- system-tested: Nitric oxide synthase, inducible (Mus musculus)
- assay-comment: Inhibition of iNOS-induced NO production in LPS-stimulated mouse BV2 cells at 10 uM after 24 hrs
- Type: cell-based
- measurement-setup: BV-2
endpoint: inhibition (%)
Answers are plain numbers, in %.

Known results for molecules:
molecule	system-tested	unit-descriptor	assay-value
COc1c(O)cc2oc(-c3ccc(F)cc3)cc(=O)c2c1O	Nitric oxide synthase, inducible (Mus musculus)	%	40.8
COc1c(O)cc(O)c2c(=O)cc(-c3ccccc3)oc12 [WOGONIN]	Nitric oxide synthase, inducible (Mus musculus)	%	40

Then there is this molecule:
Request: Data request, read-out inhibition, for `COc1c(O)cc2oc(-c3cccc(F)c3)cc(=O)c2c1O`
Result: 39.9
